All values here come from patent US20150203474A1.

assay: PK study of Form A of Compound I in rats; type: in vivo; details: male, Sprague-Dawley, rat, plasma, po, 75 mg/kg, single PO dose of 75 mg/kg, male SD rats, 3 hr, Rat #2; read-out: plasma concentration
Recorded Endpoint: concentration at 3 h
Express your answer as a number followed by its unit.

Q) Given the compound COC(=O)N[C@H](C(=O)N1CCC[C@H]1c1ncc(-c2ccc3cc(-c4ccc5nc([C@@H]6CCCN6C(=O)[C@@H](NC(=O)OC)C(C)C)[nH]c5c4)ccc3c2)[nH]1)C(C)C [Form A of Compound I] , what is its reported concentration at 3 h?
A) 8060 ng/mL
